test system: Chinese hamster fibroblast NR+ line (T79-A3), NR transfectant; experiment: Cytotoxicity, 18 h drug exposure, V79 NR+ line (T79-A3); format: cell-based; settings: T78-1 vs T79-A3; inter-experiment average
So I've got a bunch of compounds here, and I need their V-79 ratio of IC50s values.

Worked set:
>>> print(df.to_string())
                                   compound  result
0  O=C(NCCN1CCOCC1)c1cc(N2CC2)c([N+](=O)[O-])cc1[N+](=O)[O-] [Compound 3]    4160
1  NC(=O)c1ccc([N+](=O)[O-])c(N2CC2)c1 [Compound 9, 3-(aziridin-1-yl)-4-nitrobenzamide]     1.4
2  O=C(NCCN1CCOCC1)c1cc([N+](=O)[O-])cc([N+](=O)[O-])c1N1CC1 [Compound 18]     >68
3  O=C(NCC(O)CO)c1cc([N+](=O)[O-])cc([N+](=O)[O-])c1N1CC1 (stereo not shown) [Compound 17]     208
4  NC(=O)c1c([N+](=O)[O-])ccc(N2CC2)c1[N+](=O)[O-] [Compound 13, 3-(aziridin-1-yl)-2,6-dinitrobenzamide]     3.8
5  CN(CCN1CCOCC1)C(=O)c1cc(N2CC2)c([N+](=O)[O-])cc1[N+](=O)[O-] [Compound 4]     235
6  CS(=O)(=O)c1cc([N+](=O)[O-])c(C(N)=O)cc1N1CC1 [Compound 12]      12
7  O=C(NCCCN1CCOCC1)c1cc(N2CC2)c([N+](=O)[O-])cc1[N+](=O)[O-] [Compound 5]    6210

For every item below, please supply its V-79 ratio of IC50s.
1. O=C(NCCCCN1CCOCC1)c1cc(N2CC2)c([N+](=O)[O-])cc1[N+](=O)[O-] [Compound 6]
2. NC(=O)c1cc(N2CC2)ccc1[N+](=O)[O-] [Compound 11, 5-(aziridin-1-yl)-2-nitrobenzamide]
3. O=C(NCCn1ccnc1)c1cc(N2CC2)c([N+](=O)[O-])cc1[N+](=O)[O-] [Compound 7]
4. NC(=O)c1cc(N2CC2)c([N+](=O)[O-])cc1[N+](=O)[O-] [CB1954, 5-(aziridin-1-yl)-2,4-dinitrobenzamide, reference compound]
5. COC(=O)CCNC(=O)c1cc(N2CC2)c([N+](=O)[O-])cc1[N+](=O)[O-] [Compound 8]
6. NC(=O)c1cc([N+](=O)[O-])cc([N+](=O)[O-])c1N1CC1 [Compound 14, 2-(aziridin-1-yl)-3,5-dinitrobenzamide]
7. O=C(NCC(O)CO)c1cc(N2CC2)c([N+](=O)[O-])cc1[N+](=O)[O-] (stereo not shown) [Compound 2]
8. CS(=O)(=O)c1cc([N+](=O)[O-])c(N2CC2)cc1C(=O)NCC(O)CO (stereo not shown) [Compound 10]

Marked response:
1. 1210
2. 1.5
3. 1170
4. 1200
5. 1580
6. 864
7. 381
8. 87

====

system: human colon carcinoma NR+ line (WC14 10), NR transfectant; experiment: Cytotoxicity, 18 h drug exposure, WiDr NR+ line (WC14 10); assay type: cell-based; conditions: Homo sapiens, WiDr; WC14 10 cells, 18 h drug exposure; read-out: WiDr NR+ IC50
Exercise: state measured IC50 for each of the compounds provided.
Give bare numbers, in µM.

Batch: IC50 for all items listed.
1. NC(=O)c1ccc([N+](=O)[O-])c(N2CC2)c1 [Compound 9, 3-(aziridin-1-yl)-4-nitrobenzamide]
2. NC(=O)c1c([N+](=O)[O-])ccc(N2CC2)c1[N+](=O)[O-] [Compound 13, 3-(aziridin-1-yl)-2,6-dinitrobenzamide]
3. NC(=O)c1cc([N+](=O)[O-])cc([N+](=O)[O-])c1N1CC1 [Compound 14, 2-(aziridin-1-yl)-3,5-dinitrobenzamide]

Marked response:
1. 62
2. 58
3. 13

Values from patent US6517836B1
